test system: T24-BAG4 human bladder carcinoma cells expressing an activated H-ras gene; assay: Cell mat assay, T24-BAG4 tumor cells; type: cell-based; details: Homo sapiens, 336 h, read-out: Tumor (T-24) IC50
READOUT_KIND: IC50

>>> result("O=C(Cc1cc[n+]([O-])cc1)N1CCN(C2c3ccc(Cl)c(Br)c3CCc3cc(Br)cnc32)CC1 (racemic)")
"< 1.6 µM"
>>> result("NC(=O)N1CCC(CC(=O)N2CCC([C@H]3c4ncc(Br)cc4CCc4cc(Cl)cc(Br)c43)CC2)CC1")
"< 1.6 µM"
>>> result("O=C(Cc1cc[n+]([O-])cc1)N1CCN([C@@H]2c3ccc(Cl)c(Br)c3CCc3cc(Br)cnc32)CC1")
"12.5 µM"

* * *

Entries and their measured IC50 follow.
test system: Ras-CVLS processing in COS cells; test: Cell-based COS cell assay: inhibition of Ras processing (Ras-CVLS); set-up: species or system monkey; details: Table 3, COS cells; read-out: Inhibition of Ras Processing IC50
READOUT_KIND: IC50

>>> result("NC(=O)N1CCC(CC(=O)N2CCC(=C3c4ncc(Br)cc4CCc4cc(Cl)cc(Br)c43)CC2)CC1 [Example 8A]")
"> 1 µM"
>>> result("O=C(Cc1cc[n+]([O-])cc1)N1CCC(=C2c3ncc(Br)cc3CCc3cc(Cl)cc(Br)c32)CC1")
"> 1 µM"
>>> result("NC(=O)N1CCC(CC(=O)N2CCC(=C3c4ncc(Br)cc4CCc4cc(Cl)cc(Br)c43)CC2)CC1 [Example 8B]")
"0.28 µM"

* * *

tested on: HTB 183 (NCI H661); experiment: Soft agar assay; type: cell-based; conditions: Homo sapiens; HTB 183 (NCI H661) (NSCLC) ras mut. not detected; read-out: IC50, inhibition of human tumor cell growth, soft agar
READOUT_KIND: IC50 (nM)

>>> numeric_value("NC(=O)N1CCC(CC(=O)N2CCC([C@H]3c4ncc(Br)cc4CCc4cc(Cl)cc(Br)c43)CC2)CC1 [Example 10]")
500

* * *

system: MCF-7; experiment: Soft agar assay; type: cell-based; conditions: Homo sapiens, MCF7; MCF-7 (breast) ras mut. not detected; read-out: IC50, inhibition of human tumor cell growth, soft agar
pIC50: −log10 of the molar value.
READOUT_KIND: pIC50

>>> result("NC(=O)N1CCC(CC(=O)N2CCC([C@H]3c4ncc(Br)cc4CCc4cc(Cl)cc(Br)c43)CC2)CC1 [Example 10]")
"> 6.22"

* * *

tested on: DLD-1 (human colon carcinoma cells); test: In vivo anti-tumor studies, subcutaneous DLD-1 tumors in athymic nu/nu mice; parameters: species or system athymic nu/nu female mice; conditions: Mus musculus, DLD-1, po, […], read-out: Average % Tumor Inhibition
READOUT_KIND: inhibition in vivo at 10 mg/kg

>>> result("O=C(Cc1cc[n+]([O-])cc1)N1CCN([C@H]2c3ccc(Cl)c(Br)c3CCc3cc(Br)cnc32)CC1")
"24%"
>>> result("NC(=O)N1CCC(CC(=O)N2CCC([C@H]3c4ncc(Br)cc4CCc4cc(Cl)cc(Br)c43)CC2)CC1")
"49%"
>>> result("O=C(Cc1cc[n+]([O-])cc1)N1CCN([C@H]2c3ccc(Cl)cc3CCc3cc(Br)cnc32)CC1 [Example 16B]")
"50%"
>>> result("O=C(Cc1cc[n+]([O-])cc1)N1CCN([C@H]2c3ncc(Br)cc3CCc3cc(Cl)cc(Br)c32)CC1 [Example 11A]")
"44.8%"
>>> result("O=C(Cc1cc[n+]([O-])cc1)N1CCN([C@@H]2c3ncc(Br)cc3CCc3cc(Cl)cc(Br)c32)CC1 [Example 11B]")
"17%"
